# Tested on: MDA-MB-231 breast
# Assay details: NCI-60 one-dose screen, 48 h
# Measurement setup: 10 µM unless noted
About 83,000 compounds went through this panel and 20% of them were active in at least one assay; those are over-represented in the sample as a whole. Activity calls are given as the source filed them. The calls were made as follows: active = growth percent below 10; inactive = the rest.
Your response should consist of one outcome taken from active, inactive

Compound	Target under test	Group label
CCN1C(=O)N(CC)C2C1NC(=S)N2/N=C/c1ccc(C(F)(F)F)cc1 (centres undefined)	MDA-MB-231 breast	inactive
COc1cc(OC)c(/C=C/C(=O)c2c(O)cc(OC)c(C3CCN(C)CC3)c2OC)c(OC)c1	MDA-MB-231 breast	active
CC1C=CC(OC(=O)C(C)(O)CCC(O)(C(=O)OC2CC(O)C(C(C)C)CC2(C)O)C(C)C)(C(C)C)CC1 (centres undefined)	MDA-MB-231 breast	active
Oc1ccc(/C=C/c2ccc(O)cc2)cc1	MDA-MB-231 breast	inactive

// outcome(item) with item = COc1ccc(C2=CC(c3cc(OC)c(OC)c(OC)c3)n3ncnc3N2)cc1 (centres undefined)
active

// outcome(item) with item = CCN1C(=O)N(CC)C2C1NN=c1s/c(=C3\C(=O)N(CCC(C)C)c4ccccc43)c(=O)n12 (centres undefined)
active

// outcome(item) with item = Cc1ccc(CNc2c3ccccc3nc3ccccc23)cc1
inactive

// outcome(item) with item = O=C(CN1CCN(c2cc3c(cc2F)c(=O)c(C(=O)O)cn3C2CC2)CC1)N/N=C/c1ccco1
inactive

// outcome(item) with item = COc1cc(/C=C2\CN(S(=O)(=O)c3ccccc3)C/C(=C\c3cc(CN4CCCCC4)c(O)c(OC)c3)C2=O)cc(CN2CCCCC2)c1O
active

// outcome(item) with item = CCCCCN(CCCCC)CC(O)c1cc(C)c2ccc3cc(C(C)C)ccc3c2c1 (centres undefined)
active

// outcome(item) with item = COc1ccc2cc(-c3ccnc4c(N=Nc5ccc(Cl)cc5)c(N)nn34)ccc2c1
inactive

// outcome(item) with item = CC/C(Cc1ccccc1)=C(\c1ccc(OCCCN(C)C)cc1)c1ccc(OC(=O)NCc2ccccc2)cc1
inactive

// outcome(item) with item = CCCn1cnc2c(c1=N)C(c1ccc(F)cc1)c1sc3c(F)cccc3c1O2 (centres undefined)
inactive

// outcome(item) with item = Cc1ccc2nc(/C(C#N)=C(/CCCO)NC(Cc3ccccc3)C(=O)OCc3ccccc3)[nH]c(=O)c2c1 (centres undefined)
inactive

// outcome(item) with item = CS(=O)(=O)c1nnc(-c2ccccc2)s1
inactive

// outcome(item) with item = COC(=O)/C=C1/SC(=Nc2ccc([N+](=O)[O-])cc2)N(CCc2c[nH]c3ccc(O)cc23)C1=O
inactive

// outcome(item) with item = Fc1cccc(-c2ccc3c(c2)C2(CCNCC2)CN3)c1
inactive

// outcome(item) with item = Nc1c(C(=O)Nc2cccc(Cl)c2)sc2nc3c(cc12)CCCC3
inactive

// outcome(item) with item = c1ccc(CCNc2c3ccccc3nc3ccccc23)cc1
inactive

// outcome(item) with item = O=C(Oc1ccc(CCl)cc1)c1ccccc1
active

// outcome(item) with item = COc1cc(OC)c2sc(-c3ccc(-n4cncc4-c4cc(OC)c(OC)c(OC)c4)cc3)nc2c1
inactive

// outcome(item) with item = CCc1ccc(CCC(=O)Nc2ncc(Cc3cc(Cl)ccc3Cl)s2)o1
inactive
